What follows is a collection of IC50 values obtained with B-Raf (Homo sapiens).
Sequence (P15056 whole entry): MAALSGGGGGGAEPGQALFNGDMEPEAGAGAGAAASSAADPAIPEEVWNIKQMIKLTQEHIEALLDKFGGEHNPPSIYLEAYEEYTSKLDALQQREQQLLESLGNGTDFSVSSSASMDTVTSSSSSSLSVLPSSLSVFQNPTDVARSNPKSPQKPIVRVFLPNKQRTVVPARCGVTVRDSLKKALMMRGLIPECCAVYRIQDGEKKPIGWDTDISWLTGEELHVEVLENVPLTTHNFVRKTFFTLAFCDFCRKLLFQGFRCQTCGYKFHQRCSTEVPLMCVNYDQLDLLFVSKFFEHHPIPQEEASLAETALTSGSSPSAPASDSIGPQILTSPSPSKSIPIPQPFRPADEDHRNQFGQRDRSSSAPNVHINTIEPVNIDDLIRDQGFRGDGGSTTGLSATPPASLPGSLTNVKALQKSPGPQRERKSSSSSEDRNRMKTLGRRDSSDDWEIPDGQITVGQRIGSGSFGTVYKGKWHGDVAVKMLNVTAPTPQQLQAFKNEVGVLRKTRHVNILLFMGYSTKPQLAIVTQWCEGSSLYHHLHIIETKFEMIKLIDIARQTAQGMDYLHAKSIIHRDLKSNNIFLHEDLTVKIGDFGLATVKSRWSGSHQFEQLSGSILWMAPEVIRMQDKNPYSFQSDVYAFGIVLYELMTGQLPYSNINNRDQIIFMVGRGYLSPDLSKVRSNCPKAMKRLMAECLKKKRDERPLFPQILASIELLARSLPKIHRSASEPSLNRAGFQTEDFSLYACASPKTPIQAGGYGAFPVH
observable: IC50

>>> print(df.to_string())
                                   compound    measvalue
0  Cc1cc(Nc2nccc(-c3sc(N(C)C)nc3-c3cccc(NC(=O)c4c(F)cccc4F)c3)n2)ccc1CC1CCNCC1 [Example 42]  0.1 to 1 µM
1  CCc1nc(-c2cccc(NC(=O)c3c(F)cccc3F)c2)c(-c2ccnc(Nc3cccc(CN4CCCC4)c3)n2)s1 [Example 115]  0.1 to 1 µM
2  Cc1nc(-c2cccc(NC(=O)c3c(F)cccc3F)c2)c(-c2ccnc(Nc3ccc(OC4CCN(C(=O)OCc5ccccc5)CC4)c(F)c3)n2)s1 [Example 106]  0.1 to 1 µM
3  Nc1nc(-c2cccc(OCc3ccccc3)c2)c(-c2ccnc(Nc3cccc(-c4cnco4)c3)n2)s1 [Example 69]       > 1 µM

Reference for the values: patent US20110098296A1
